System: ACHN
Experiment: NCI tumour cell line growth inhibition, 48 h
Calls of active or inactive are those of the source. Cut-off read from the data, not from the text of the source: active = GI50 up to about 1.1 µM and inactive = higher.
Entries and their GI50 values follow.

CS(C)(=O)=N/C=C\C(=O)C(Cl)(Cl)Cl	> 100 µM (inactive)
CSc1nc(-c2ccccc2)nc(C(C#N)C#N)n1	> 100 µM (inactive)
CCc1cccc(C)c1NC(=O)CC1Sc2ccccc2NC1=O (centres undefined)	40.8 µM (inactive)

Moving on to another compound below.
## Input Return GI50 for the following compound: CC(=O)c1c(O)c(C)c(O)c(Cc2c(O)c3c(c(C(=O)/C=C/c4ccccc4)c2O)OC(C)(C)C=C3)c1O
## Output 3.51 µM (inactive)

====

Entries and their GI50 values follow.
Test system: A498
Experiment: NCI tumour cell line growth inhibition, 48 h
Calls of active or inactive are those of the source. No stated cut-off is given here; in the data, active = GI50 up to about 1.1 µM and inactive = higher.

Example entries and their recorded answers appear below.
COc1ccc(N(C(=O)OC(C)(C)C)[C@@H]2C(C)=C[C@H]([S@@+]([O-])c3ccc(C)cc3)[C@@H]3C(=O)N(C)C(=O)[C@@H]32)cc1	10.1 µM (inactive)
CC(=O)/C=C/c1ccc(C)cc1	> 100 µM (inactive)

## Input Return GI50 for the following compound: C/C(=N/NC(=O)c1ccccc1O)c1ccc(/C(C)=N\NC(=O)c2ccccc2O)c2nc3cc(C)c(C)cc3nc12
## Output > 100 µM (inactive)

## Input Return GI50 for the following compound: CC(=O)Nc1ccc(C(O)/C(=N/N)c2nc3ccc(Cl)cc3nc2O)cc1 (stereo not given)
## Output > 100 µM (inactive)

====

System: IGROV-1
Test: NCI tumour cell line growth inhibition, 48 h
The source made the active and inactive calls. Rule as the data show it: active = GI50 up to about 1.1 µM and inactive = higher.
Entries and their GI50 values follow.

CN(C)CCCNC(=O)CCNC(=O)c1cc(NC(=O)c2cc(NC(=O)c3cc(NC(=O)c4nc(NC(=O)CCCNC(=O)c5cc(NC(=O)c6cc(NC(=O)c7cc(NC(=O)c8nccn8C)cn7C)cn6C)cn5C)cn4C)cn3C)cn2C)cn1C	> 100 µM (inactive)
C=CCCCCn1c2ccccc2c2c(C)c3cnccc3c(C)c21	11.7 µM (inactive)
CN1CCc2c(sc3nc(S)nc(S)c23)C1	> 100 µM (inactive)
COc1ccc(NC(S)=Nc2ccccc2)cc1	> 100 µM (inactive)
Oc1cnnc2nc3ccccc3n12	> 100 µM (inactive)

## Input Return GI50 for the following molecule: COc1ccc(N(C(=O)OC(C)(C)C)[C@@H]2C(C)=C[C@H]([S@@+]([O-])c3ccc(C)cc3)[C@@H]3C(=O)N(C)C(=O)[C@@H]32)cc1
## Output 10.7 µM (inactive)

## Input Return GI50 for the following molecule: CCOC(=O)C(=O)Nc1ccccc1CC
## Output > 100 µM (inactive)

## Input Return GI50 for the following molecule: Cc1ccc(NC(=O)C(=O)C2C(=O)NC(=O)NC2=O)cc1C
## Output > 100 µM (inactive)

## Input Return GI50 for the following molecule: COc1ccc(CC2c3cc(OC)c(OC)c(OC)c3CC[N+]2(C)C)cc1Oc1ccc(CC2c3cc4c(c(OC)c3CC[N+]2(C)C)OCO4)cc1 (configuration not stated)
## Output > 100 µM (inactive)

## Input Return GI50 for the following molecule: Cc1cc(=O)oc2c(CNC(CC(C)C)C(=O)O)c(O)ccc12 (configuration not stated)
## Output > 100 µM (inactive)

## Input Return GI50 for the following molecule: O=C(/C=C/c1ccccc1O)c1cccnc1
## Output > 100 µM (inactive)

## Input Return GI50 for the following molecule: CCCCN(CC)c1nc(C)nc2c1c(C)c(C)n2-c1c(C)cc(C)cc1C
## Output 14.5 µM (inactive)

## Input Return GI50 for the following molecule: CCCCC1CC(c2cccc([N+](=O)[O-])c2)=NO1 (configuration not stated)
## Output > 100 µM (inactive)

## Input Return GI50 for the following molecule: O=C(NCCS(=O)(=O)N1C(=O)C2CCCN2C(=O)[C@@H]1Cc1ccccc1)OCc1ccccc1 (some centres not stated)
## Output 72.6 µM (inactive)

## Input Return GI50 for the following molecule: COC(=O)C(NC(=O)CNC(=O)CSc1nnc(COc2ccc(Cl)cc2)n1-c1ccccc1)C(C)C (configuration not stated)
## Output 18.8 µM (inactive)

## Input Return GI50 for the following molecule: CCCCCCCCCCCC(=O)OCCOCCOCCOCCOCCOC(=O)CCCCCCCCCCC
## Output > 100 µM (inactive)

====

Test system: OVCAR-8
Assay: NCI tumour cell line growth inhibition, 48 h
Activity calls are given as the source filed them. Cut-off read from the data, not from the text of the source: active = GI50 up to about 1.1 µM and inactive = higher.
OBSERVATION_TYPE: GI50

Example entries and their recorded answers appear below.
O=C(/C=C/c1c(O)ccc2ccccc12)c1ccccc1	> 100 µM (inactive)
COc1ccc(C(CC(=O)c2ccc3c(c2)OCO3)c2c(O)oc3ccccc3c2=O)cc1OC (stereo unspecified)	> 100 µM (inactive)
C1OCC2S[C@@H]3COCO[C@@H]3C2O1 (stereo partly specified)	> 100 µM (inactive)
OCc1ccccc1C1CSCSC1	> 100 µM (inactive)

## Input Return GI50 for the following molecule: c1ccc(C2C3=C(Nc4ncnn42)c2ccccc2C3)cc1 (stereo unspecified)
## Output 30.8 µM (inactive)

## Input Return GI50 for the following molecule: COC(=O)c1onc(-c2c(OC)cc(OC)cc2OC)c1C(=O)OC
## Output > 100 µM (inactive)

====

Tested on: COLO 205
Assay: NCI tumour cell line growth inhibition, 48 h
Calls of active or inactive are those of the source. Cut-off read from the data, not from the text of the source: active = GI50 up to about 1.1 µM and inactive = higher.
Entries and their GI50 values follow.

Example entries and their recorded answers appear below.
CCOC(=O)Nn1c(C)cc(C(=O)OC)c1C	> 100 µM (inactive)
Cc1c(CCCl)c(N=P(c2ccccc2)(c2ccccc2)c2ccccc2)n2c(nc3ccccc32)c1C#N	> 10 µM (inactive)
COC(=O)NC1C(C)OC(OC2C/C=C(/C)C3C=CC4C(OC5CC(OC6CCC(OC7CC(O)C(OC8CCC(O)C(C)O8)C(C)O7)C(C)O6)C(OC(C)=O)C(C)O5)C(C)CC(C)C4C3(C)/C(O)=C3/C(=O)OC4(CC(C=O)=CC(O)C4/C=C\2C)C3=O)CC1(C)[N+](=O)[O-] (stereo not given)	1.1 µM (active)

## Input Return GI50 for the following compound: COc1ccc(-c2c3c(n(C4OC(COC(C)=O)C(OC(C)=O)C(OC(C)=O)C4OC(C)=O)c(=S)c2C#N)CCCC3)cc1 (stereo not given)
## Output 69.5 µM (inactive)

## Input Return GI50 for the following compound: C[C@@]1(c2ccccc2)O[C@@H]2C[C@H]3[C@@H]4CCC5=CC(=O)C=C[C@]5(C)[C@@]4(F)[C@@H](O)C[C@]3(C)[C@]2(C(=O)CO)O1 [AMCINAFIDE]
## Output 14.4 µM (inactive)

## Input Return GI50 for the following compound: Brc1ccc(-c2ccc(-c3ccc(Br)s3)s2)s1
## Output > 100 µM (inactive)

## Input Return GI50 for the following compound: O=C(c1ccccc1)c1ccc2[nH]c(-c3c(Cl)c(Cl)c(Cl)c(Cl)c3-c3nnc(-c4ccccc4)o3)nc2c1
## Output 18.3 µM (inactive)

## Input Return GI50 for the following compound: CN(C(=O)C1CC1)C1C2CN3CCC(O2)C13 (stereo not given)
## Output > 100 µM (inactive)

## Input Return GI50 for the following compound: CO/C(N)=C(C#N)/N=C/c1cccnc1
## Output > 100 µM (inactive)

## Input Return GI50 for the following compound: O=c1cc(N2CCOCC2)n2c(ccc3ccccc32)n1
## Output > 100 µM (inactive)

====

System: OVCAR-8
Experiment: NCI tumour cell line growth inhibition, 48 h
Calls of active or inactive are those of the source. No stated cut-off is given here; in the data, active = GI50 up to about 1.1 µM and inactive = higher.
Thanks in advance; please answer with one of these: active, inactive

Please review the entries below; each comes with its answer.
Cc1cc(S(=O)(=O)Nc2nc(N)n[nH]2)c(Cl)cc1Cl	inactive
Cn1c(=O)c2c(nc(Cc3ccccc3)n2CC(=O)O)n(C)c1=O	inactive
COc1ccc2[nH]cc(C=C3C(=O)NC(=S)NC3=O)c2c1	inactive

## Input // outcome(item) with item = CCCC1=NC(C(F)(F)F)(C(F)(F)F)N=C(N2CCOCC2)O1
## Output inactive

## Input // outcome(item) with item = CC1(c2nc3ccccc3[nH]2)CCC(CO)C(C)(C)O1 (stereo not given)
## Output inactive

## Input // outcome(item) with item = COc1ccc(Nc2nc3ccccc3nc2-c2cccs2)cc1
## Output inactive

## Input // outcome(item) with item = COc1ccc(NC(S)=Nc2ccccc2)cc1
## Output inactive

## Input // outcome(item) with item = C=CCOCC1C2CCC3(OCCO3)C21 (stereo not given)
## Output inactive

## Input // outcome(item) with item = COC(=O)NC1C(C)OC(OC2C/C=C(/C)C3C=CC4C(OC5CC(OC6CCC(OC7CC(O)C(OC8CCC(O)C(C)O8)C(C)O7)C(C)O6)C(OC(C)=O)C(C)O5)C(C)CC(C)C4C3(C)/C(O)=C3/C(=O)OC4(CC(C=O)=CC(O)C4/C=C\2C)C3=O)CC1(C)[N+](=O)[O-] (stereo not given)
## Output active

## Input // outcome(item) with item = COc1ccc(C=O)cc1O[Si](C)(C)C(C)(C)C
## Output inactive
